Target: T1, Δ14ArtA (Staphylococcus aureus plasmid pSK41, UniProt Q52270 15-62, del1-14)
T1 chain: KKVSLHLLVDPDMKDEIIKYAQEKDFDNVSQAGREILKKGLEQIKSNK
Assay: fluorescence polarization
Measured property: binding result

1) Porf538 Mutant 2 (dsDNA) DNA 1: ACACGACATGAAATTAAACGT DNA 2: ACGTTTAATTTCATGTCGTGT : no binding
2) Porf259 24-mer (dsDNA) DNA 1: TAAACATTGCATAACATGACAGGT DNA 2: ACCTGTCATGTTATGCAATGTTTA : no binding
3) Porf538 21-mer (dsDNA) DNA 1: ACACGACATGAAATGACACGT DNA 2: ACGTGTCATTTCATGTCGTGT : no binding
4) Porf259 11-mer (dsDNA) DNA 1: ACATGACAGGT DNA 2: ACCTGTCATGT : no binding
5) Porf538 Mutant 1 (dsDNA) DNA 1: ACACTAAATGAAATGACACGT DNA 2: ACGTGTCATTTCATTTAGTGT : no binding
6) Porf538 left half site (dsDNA) DNA 1: ACACGACATCA DNA 2: TGATGTCGTGT : no binding
7) Porf538 right half site (dsDNA) DNA 1: AAATGACACGT DNA 2: ACGTGTCATTT : no binding

Cited source for all entries: paper PMC2777438
